Would you mind telling me the reported activity coefficient of each entry?
- MEASUREMENT NOTES: activity coefficient (dimensionless); of the first substance listed, at infinite dilution; xn = mol fraction of the nth substance listed
- PARTICULARS: 328.15 K; Liquid; Chromatography; x1 = 0

GET /values?readout=activity coefficient&item= CCO [ethanol] + CCCCCCCCCCCCCC[P+](CCCCCC)(CCCCCC)CCCCCC.F[B-](F)(F)F
5.14

Which activity coefficient reading was recorded for the molecule C1CCCCC1 [cyclohexane] + CCCCCCCCCCCCCC[P+](CCCCCC)(CCCCCC)CCCCCC.[Cl-] ?
0.625

Recorded activity coefficient for C#CCCCCCC [1-octyne] + CCCCCCCCCCCCCC[P+](CCCCCC)(CCCCCC)CCCCCC.F[B-](F)(F)F , please?
0.417

Return reported activity coefficient; argument: CCCCC [pentane] + CCCCCCCCCCCCCC[P+](CCCCCC)(CCCCCC)CCCCCC.O=S(=O)([N-]S(=O)(=O)C(F)(F)F)C(F)(F)F
0.597

Quick one: activity coefficient for C1CCCC1 [cyclopentane] + CCCCCCCCCCCCCC[P+](CCCCCC)(CCCCCC)CCCCCC.[Cl-] ?
0.574

Return reported activity coefficient; argument: CCCCC [pentane] + CCCCCCCCCCCCCC[P+](CCCCCC)(CCCCCC)CCCCCC.[Cl-]
0.594

Fill blank: measured activity coefficient of the molecule CCCCCC [hexane] + CCCCCCCCCCCCCC[P+](CCCCCC)(CCCCCC)CCCCCC.F[B-](F)(F)F is ____.
0.925

What activity coefficient value was documented for this molecule, c1ccccc1 [benzene] + CCCCCCCCCCCCCC[P+](CCCCCC)(CCCCCC)CCCCCC.F[B-](F)(F)F ?
0.366
